Molecular target: beta-catenin/TCF4 engagement (Homo sapiens, UniProt P35222)
Construct: expressed in transfected cells; host or cells: HEK293
Sequence (P35222 whole entry): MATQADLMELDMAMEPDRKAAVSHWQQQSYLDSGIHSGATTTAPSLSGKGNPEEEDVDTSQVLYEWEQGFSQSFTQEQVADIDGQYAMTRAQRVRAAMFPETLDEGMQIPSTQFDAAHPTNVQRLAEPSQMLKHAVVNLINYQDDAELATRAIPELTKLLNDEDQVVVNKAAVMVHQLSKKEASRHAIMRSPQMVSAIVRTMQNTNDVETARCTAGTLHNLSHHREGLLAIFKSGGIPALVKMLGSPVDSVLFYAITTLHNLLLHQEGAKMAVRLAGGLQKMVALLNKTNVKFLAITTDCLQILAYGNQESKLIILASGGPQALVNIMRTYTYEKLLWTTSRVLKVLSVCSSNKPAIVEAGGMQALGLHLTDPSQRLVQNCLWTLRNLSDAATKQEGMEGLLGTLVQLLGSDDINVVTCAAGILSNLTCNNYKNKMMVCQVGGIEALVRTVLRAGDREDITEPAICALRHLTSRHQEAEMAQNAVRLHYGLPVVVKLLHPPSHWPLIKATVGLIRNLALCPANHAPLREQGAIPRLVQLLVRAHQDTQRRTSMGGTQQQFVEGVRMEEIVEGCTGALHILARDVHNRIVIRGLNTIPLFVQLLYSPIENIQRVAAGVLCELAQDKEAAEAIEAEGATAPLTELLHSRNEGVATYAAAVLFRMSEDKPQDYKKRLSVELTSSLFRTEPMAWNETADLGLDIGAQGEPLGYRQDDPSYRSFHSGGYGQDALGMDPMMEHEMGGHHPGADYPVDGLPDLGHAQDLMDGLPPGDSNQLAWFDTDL
Experiment: Nano-BRET target engagement assay (B-cat-Halo & TCF4-Luc in HEK293 cells)
Assay type: cell-based
Settings: read-out: NanoBRET Abs IC50
Catalogue of IC50 values
Respond numerically; units are µM and should not be typed.

# Molecule, Experimental target, Unit string, IC50
measured = [
    ("CC(=O)N1CCC[C@]12CC=CCCCC1(CCCC=CCCCCOC(=O)N3CC[C@@](C(=O)N[C@@H](Cc4ccsc4)C(=O)N[C@@H](Cc4csc5ccccc45)C(=O)N[C@@H](CCC(N)=O)C(=O)N[C@H](C)C(N)=O)(C3)NC(=O)[C@H](CC(N)=O)NC(=O)[C@H](Cc3ccccc3)NC(=O)[C@H](C)NC(=O)[C@H](C)NC(=O)[C@H](CC(=O)O)NC(=O)[C@H](CC(=O)O)NC1=O)NC(=O)[C@H](CC(C)(C)C)NC(=O)[C@H](CC(=O)O)NC2=O (some centres unmarked) [I-830]", "beta-catenin/TCF4 engagement (Homo sapiens, UniProt P35222)", "µM", 38.5),
    ("CC(=O)N1CCC[C@]12CC=CCCCC1(CCCC=CCCCOC(=O)N3CC[C@@](C(=O)N[C@@H](Cc4ccsc4)C(=O)N[C@@H](Cc4csc5ccccc45)C(=O)N[C@@H](CC(N)=O)C(=O)N[C@@H](C)C(=O)N[C@@H](C)C(=O)N[C@@H](C)C(N)=O)(C3)NC(=O)[C@H](CC(C)C)NC(=O)[C@H](Cc3ccccc3)NC(=O)[C@H](C)NC(=O)[C@H](C)NC(=O)[C@H](Cc3cccc(C(=O)O)c3)NC(=O)[C@H](CC(=O)O)NC1=O)NC(=O)[C@H](CC(C)(C)C)NC(=O)[C@H](CC(=O)O)NC2=O (some centres unmarked)", "beta-catenin/TCF4 engagement (Homo sapiens, UniProt P35222)", "µM", 2.9),
    ("CC(=O)N1CCC[C@]12CC=CCCCC1(CCCC=CCCCOC(=O)N3CC[C@@](C(=O)N[C@@H](Cc4ccccc4Cl)C(=O)N[C@@H](Cc4csc5ccccc45)C(=O)N[C@@H](C)C(N)=O)(C3)NC(=O)[C@H](CC(N)=O)NC(=O)[C@H](Cc3ccccc3)NC(=O)[C@H](C)NC(=O)[C@H](C)NC(=O)[C@H](Cc3cccc(C(=O)O)c3)NC(=O)[C@H](CC(=O)O)NC1=O)NC(=O)[C@H](CC(C)(C)C)NC(=O)[C@H](CC(=O)O)NC2=O (some centres unmarked)", "beta-catenin/TCF4 engagement (Homo sapiens, UniProt P35222)", "µM", 4.7),
]

Next molecule, please.
The molecule CC(=O)N1CCC[C@]12CC=CCCCC1(CCCC=CCCCCOC(=O)N3CCC(C(=O)N[C@@H](Cc4ccsc4)C(=O)N[C@@H](Cc4csc5ccccc45)C(=O)N[C@@H](CCC(N)=O)C(N)=O)(CC3)NC(=O)[C@H](CC(C)C)NC(=O)[C@H](Cc3ccccc3)NC(=O)[C@H](C)NC(=O)[C@H](C)NC(=O)[C@H](Cc3cccc(C(=O)O)c3)NC(=O)[C@H](CC(=O)O)NC1=O)NC(=O)[C@H](CC(C)(C)C)NC(=O)[C@H](CC(=O)O)NC2=O (some centres unmarked) , tested on beta-catenin/TCF4 engagement (Homo sapiens, UniProt P35222), showed IC50 of 18.9
